TEST SYSTEM: ADAM10 (Homo sapiens, UniProt O14672)
Construct: purchased AnaSpec, Inc. AS-72226
Sequence (O14672 214-748): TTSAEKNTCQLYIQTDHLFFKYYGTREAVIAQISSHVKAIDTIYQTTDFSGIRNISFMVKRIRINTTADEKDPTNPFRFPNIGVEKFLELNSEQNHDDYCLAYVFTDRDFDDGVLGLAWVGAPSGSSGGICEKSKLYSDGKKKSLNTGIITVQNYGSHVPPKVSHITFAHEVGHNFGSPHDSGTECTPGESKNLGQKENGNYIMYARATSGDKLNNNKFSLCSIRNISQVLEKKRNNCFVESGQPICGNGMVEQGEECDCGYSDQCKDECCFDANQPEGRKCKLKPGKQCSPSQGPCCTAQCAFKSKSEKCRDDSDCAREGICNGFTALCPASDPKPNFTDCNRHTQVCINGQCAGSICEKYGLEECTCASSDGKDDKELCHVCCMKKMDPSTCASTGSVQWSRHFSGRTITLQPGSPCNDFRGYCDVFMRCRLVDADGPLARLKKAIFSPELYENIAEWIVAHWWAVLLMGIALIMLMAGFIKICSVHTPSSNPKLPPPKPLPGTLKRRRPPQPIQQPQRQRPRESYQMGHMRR
MEASUREMENT PROTOCOL: SensoLyte 520 ADAM10 fluorometric activity assay (AnaSpec AS-72226)
Format: biochemical
pIC50: −log10 of the molar value.
The molecules listed here are annotated with their pIC50.

Examples from the recorded data:
COCCOC(=O)N1[C@@H]2CC[C@H]1[C@H](C(=O)NO)N(S(=O)(=O)c1ccc(Oc3ccc(F)cc3)c(F)c1)C2
6.00 to 7.30
COCCOC(=O)N1[C@@H]2CC[C@H]1[C@H](C(=O)NO)N(S(=O)(=O)N1CCC(Oc3ccc(C(F)(F)F)cc3)CC1)C2
6.00 to 7.30
COCCOC(=O)N1[C@@H]2CC[C@H]1[C@H](C(=O)NO)N(S(=O)(=O)N1CCC(Oc3ccc(Cl)cc3)CC1)C2
6.00 to 7.30

Consider the record given below.
Query the reported pIC50 for ADAM10 (Homo sapiens, UniProt O14672); item: O=C(NO)[C@H]1[C@@H]2CC[C@H](CN1S(=O)(=O)c1ccc(Oc3ccc(OCC(F)(F)F)cc3)nc1)N2C(=O)N1CCOCC1
< 5.00
